From: the supplement of paper PMC8728848

target: GlcNAc(b1-2)[GlcNAc(b1-4)]Man(a1-3)[GlcNAc(b1-2)Man(a1-6)]Man(b1-4)GlcNAc(b1-4)GlcNAc; assay: glycan array binding signal (z-score within array); higher = stronger binding; conditions: glycan notation: IUPAC condensed, linker removed
Only a selection was taken, and the strongest signals are over-represented in it overall.
Below, each of the binders is paired with its reported glycan array binding signal (z-score) value.

[
  {
    "binder": "PpFlo1 (Pichia pastoris) (protein) MGSSHHHHHHSSGLVPRGSHMQESGDGDISDSAYACDIDATRYDGFNATIYEFQPGDGRLTRDPVFMSTGYLNRTQLHSITGVTDPGFSIYTPGVPTTTLYGIPNVNWENLLLELKGYFRAEVSGDYGLSLRNIDDSAILFFGKETAFQCCNENSISNEASTDYSLFTIFRQEGDETTNLDSFTYTQYLEAGKYYPVRTFFVNIERHAVFNFTMTLPDGTELTDFHNYIYQFGALDEEQCQA",
    "glycan array binding signal (z-score)": -0.171
  },
  {
    "binder": "Mincle (Homo sapiens), Q9ULY5 (protein) MNSSKSSETQCTERGCFSSQMFLWTVAGIPILFLSACFITRCVVTFRIFQTCDEKKFQLPENFTELSCYNYGSGSVKNCCPLNWEYFQSSCYFFSTDTISWALSLKNCSAMGAHLVVINSQEEQEFLSYKKPKMREFFIGLSDQVVEGQWQWVDGTPLTKSLSFWDVGEPNNIATLEDCATMRDSSNPRQNWNDVTCFLNYFRICEMVGINPLNKGKSL",
    "glycan array binding signal (z-score)": -0.194
  },
  {
    "binder": "OrysaEULS2 (Oryza sativa) (protein) MVYCRANPNYAMTARNGAVVLAPANPKDEYQHWIKDMRWSTSIKDEEGYPAFALVNKATGQAIKHSLGQSHPVRLVPYNPEVMDESVLWTESRDVGNGFRCIRMVNNIYLNFDAFHGDKYHGGVRDGTDIVLWKWCEGDNQRWKIQPYYILEQKLISEEDLNSAVDHHHHHH",
    "glycan array binding signal (z-score)": -0.179
  },
  {
    "binder": "rCnSL-proB (Clitocybe nebularis) (protein) PTFSPIFALLAFLPFGTLASLLPQTQLVFRINPNLPGPNDVFVGYRGTNNVVGAIYERDGIKDTPMNNGADAELGPGSYITDDLFTAQIFASGSAGNNPGTTATVCKIYADGVQWRGAPKGYLPVLYFGNGQAAEQTRQTYLQGLDIPGTAIRFANLAKTPNQGPTAPRQMVVPSGGLQTLLKASCFPANHAALPQVLSYFNVRAALPPGWNIRTGPEFPNWTN",
    "glycan array binding signal (z-score)": -0.133
  }
]
